Measured GI50 of individual entries
system: HT-29; test: NCI tumour cell line growth inhibition, 48 h
Calls of active or inactive are those of the source. Rule as the data show it: active = GI50 up to about 1.1 µM and inactive = higher.

Please review the following examples before continuing.
Brc1ccc2c([C@H]3CN[C@@H](c4c[nH]c5cc(Br)ccc45)CN3)c[nH]c2c1 = 1.92 µM (inactive)
C/C(=N\NS(=O)(=O)c1ccc([N+](=O)[O-])cc1)c1ccc[n+]([O-])n1 = 2.11 µM (inactive)
CCC1=C(c2ccc(OC)cc2)CC[C@]2(CCNC2=O)[C@@H]1C = 23.2 µM (inactive)
O=C1CC(CC(O)[C@@H]2CCCC[C@@H]2O)CC(=O)N1c1ccccc1 (stereo partly specified) = > 100 µM (inactive)
Cc1ccc(S(=O)(=O)N(CCN)c2cc3c4c(c2)Oc2cccc5c2C4c2c(cccc2O3)O5)cc1 = 14.9 µM (inactive)

Summary: CSc1c(C(=O)Nc2ccc(C)cc2)c(N)nn1-c1ccccc1 , HT-29, GI50 = > 100 µM (inactive)

meta.source: ChEMBL document CHEMBL1201862
